# System: Ca^2 + channels (Rattus norvegicus)
# Construct: rat cardiac microsomes (source of Ca^2 + channels)
# Sequence (P22002 whole entry, other chains not shown): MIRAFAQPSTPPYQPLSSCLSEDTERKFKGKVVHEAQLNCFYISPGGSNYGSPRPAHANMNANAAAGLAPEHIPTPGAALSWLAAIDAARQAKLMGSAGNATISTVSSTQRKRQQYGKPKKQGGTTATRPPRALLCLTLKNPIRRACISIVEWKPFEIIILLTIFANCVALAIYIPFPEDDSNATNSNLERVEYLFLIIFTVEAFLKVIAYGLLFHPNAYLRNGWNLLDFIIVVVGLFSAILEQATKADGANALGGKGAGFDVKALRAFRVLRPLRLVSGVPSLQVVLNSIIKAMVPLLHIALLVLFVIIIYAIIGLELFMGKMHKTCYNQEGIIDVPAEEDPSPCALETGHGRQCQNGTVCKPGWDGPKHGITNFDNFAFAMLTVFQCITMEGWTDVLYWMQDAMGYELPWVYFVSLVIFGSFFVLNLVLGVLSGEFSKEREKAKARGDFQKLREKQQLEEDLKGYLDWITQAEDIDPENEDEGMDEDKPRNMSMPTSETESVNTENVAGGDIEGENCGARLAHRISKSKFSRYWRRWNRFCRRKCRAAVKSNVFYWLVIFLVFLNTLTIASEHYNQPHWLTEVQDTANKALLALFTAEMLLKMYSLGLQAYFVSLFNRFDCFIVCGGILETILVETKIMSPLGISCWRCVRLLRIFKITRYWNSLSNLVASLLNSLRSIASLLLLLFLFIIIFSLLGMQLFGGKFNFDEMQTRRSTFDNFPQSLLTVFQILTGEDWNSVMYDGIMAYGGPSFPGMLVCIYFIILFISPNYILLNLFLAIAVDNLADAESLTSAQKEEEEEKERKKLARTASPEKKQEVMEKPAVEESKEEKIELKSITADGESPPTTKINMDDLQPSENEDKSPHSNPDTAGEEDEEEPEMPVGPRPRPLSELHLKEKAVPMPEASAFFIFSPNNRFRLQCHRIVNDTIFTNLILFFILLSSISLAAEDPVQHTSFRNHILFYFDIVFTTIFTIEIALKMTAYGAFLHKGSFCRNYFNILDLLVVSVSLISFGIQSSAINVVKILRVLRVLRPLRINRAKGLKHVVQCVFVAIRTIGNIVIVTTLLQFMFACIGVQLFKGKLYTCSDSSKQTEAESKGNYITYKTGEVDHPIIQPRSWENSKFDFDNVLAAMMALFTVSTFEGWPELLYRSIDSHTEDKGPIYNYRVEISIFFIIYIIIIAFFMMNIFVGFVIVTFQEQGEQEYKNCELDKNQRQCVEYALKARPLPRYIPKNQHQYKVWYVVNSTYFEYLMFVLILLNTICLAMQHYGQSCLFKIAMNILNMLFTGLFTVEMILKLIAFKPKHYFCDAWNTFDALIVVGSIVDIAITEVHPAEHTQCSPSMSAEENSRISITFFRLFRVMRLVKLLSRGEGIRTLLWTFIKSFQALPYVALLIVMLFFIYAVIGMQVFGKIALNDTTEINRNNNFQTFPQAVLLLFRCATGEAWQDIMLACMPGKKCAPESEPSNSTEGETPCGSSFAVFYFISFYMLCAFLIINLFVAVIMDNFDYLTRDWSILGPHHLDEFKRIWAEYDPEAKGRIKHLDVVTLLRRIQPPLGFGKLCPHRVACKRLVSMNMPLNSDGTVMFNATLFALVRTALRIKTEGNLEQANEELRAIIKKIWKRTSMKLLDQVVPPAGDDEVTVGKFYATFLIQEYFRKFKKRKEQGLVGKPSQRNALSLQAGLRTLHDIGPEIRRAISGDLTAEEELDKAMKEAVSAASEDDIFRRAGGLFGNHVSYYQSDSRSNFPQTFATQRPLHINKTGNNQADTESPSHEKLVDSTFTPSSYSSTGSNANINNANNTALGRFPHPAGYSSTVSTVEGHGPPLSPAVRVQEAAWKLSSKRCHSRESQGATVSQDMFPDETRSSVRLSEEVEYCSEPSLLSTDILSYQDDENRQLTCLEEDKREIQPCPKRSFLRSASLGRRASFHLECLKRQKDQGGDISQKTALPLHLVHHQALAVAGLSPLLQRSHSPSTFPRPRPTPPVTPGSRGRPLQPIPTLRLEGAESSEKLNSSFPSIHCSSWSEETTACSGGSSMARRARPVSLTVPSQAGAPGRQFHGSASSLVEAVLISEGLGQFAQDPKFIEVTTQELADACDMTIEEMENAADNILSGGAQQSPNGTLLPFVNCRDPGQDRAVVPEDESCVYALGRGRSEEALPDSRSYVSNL
# Sequence (P54290 25-944 partner limits assumed, other chains not shown): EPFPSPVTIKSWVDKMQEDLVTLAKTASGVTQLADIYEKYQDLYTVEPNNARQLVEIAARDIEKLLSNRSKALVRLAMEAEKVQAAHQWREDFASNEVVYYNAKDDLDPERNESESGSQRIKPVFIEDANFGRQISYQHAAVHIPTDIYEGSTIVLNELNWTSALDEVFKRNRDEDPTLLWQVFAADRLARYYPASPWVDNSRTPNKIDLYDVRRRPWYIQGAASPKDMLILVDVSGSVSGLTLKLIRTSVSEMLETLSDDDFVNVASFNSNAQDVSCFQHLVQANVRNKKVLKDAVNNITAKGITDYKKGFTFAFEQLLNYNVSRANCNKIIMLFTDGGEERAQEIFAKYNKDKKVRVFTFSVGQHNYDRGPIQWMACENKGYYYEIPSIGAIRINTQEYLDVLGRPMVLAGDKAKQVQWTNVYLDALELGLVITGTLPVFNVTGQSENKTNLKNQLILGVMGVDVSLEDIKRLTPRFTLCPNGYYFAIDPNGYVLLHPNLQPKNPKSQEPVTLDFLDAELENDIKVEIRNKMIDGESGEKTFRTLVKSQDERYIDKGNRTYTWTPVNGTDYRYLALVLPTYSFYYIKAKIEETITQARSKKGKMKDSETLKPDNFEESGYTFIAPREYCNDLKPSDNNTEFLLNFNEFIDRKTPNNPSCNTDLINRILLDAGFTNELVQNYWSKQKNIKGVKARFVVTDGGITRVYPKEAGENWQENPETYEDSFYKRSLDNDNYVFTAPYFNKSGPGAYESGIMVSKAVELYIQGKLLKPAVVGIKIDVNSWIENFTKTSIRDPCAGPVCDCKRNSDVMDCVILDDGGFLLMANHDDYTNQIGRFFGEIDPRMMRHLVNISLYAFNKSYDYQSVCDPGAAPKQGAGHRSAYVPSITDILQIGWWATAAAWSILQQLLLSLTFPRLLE
# Sequence (P54290 945-1091 partner limits assumed, other chains not shown): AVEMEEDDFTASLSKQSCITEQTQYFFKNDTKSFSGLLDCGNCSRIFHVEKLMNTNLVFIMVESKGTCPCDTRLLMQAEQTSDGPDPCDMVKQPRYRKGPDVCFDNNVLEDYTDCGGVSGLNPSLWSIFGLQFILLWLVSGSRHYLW
# Assay overview: [^3 H]-Nitrendipine binding assay (affinity for calcium channels)
# Experimental conditions: rat cardiac microsomes, 0.5 nM [^3 H]-nitrendipine, 60 minutes at 25°
Task for the reader: assign each of the following compounds its reported log10(IC50).
Friendly reminder: values = log10 of IC50, unit nM.

Example compounds with recorded log10(IC50):
| Compound | System | log10(IC50) |
| --- | --- | --- |
| COc1ccccc1N1CCN(CCCOc2ccccc2C2C(C(=O)OC(C)C)=C(C)NC(C)=C2[N+](=O)[O-])CC1 (stereo not shown) [Example 134] | Ca^2 + channels (Rattus norvegicus) | 3.92 |
| COC(=O)C1=C(C)NC(C)=C([N+](=O)[O-])C1c1cccc(OC)c1OCC=CCN1CCN(c2ncccn2)CC1 (stereo not shown) [Example 121] | Ca^2 + channels (Rattus norvegicus) | 3.48 |
| CCOc1cccc(C2C(C(=O)OC)=C(C)NC(C)=C2[N+](=O)[O-])c1OCCCN1CCN(c2ccccc2OC)CC1 (stereo not shown) [Example 108] | Ca^2 + channels (Rattus norvegicus) | 3.00 |
| COC(=O)C1=C(C)NC(C)=C([N+](=O)[O-])C1c1cc(Cl)ccc1OCCCCN1CCN(c2ccccc2OC)CC1 (stereo not shown) [Example 143] | Ca^2 + channels (Rattus norvegicus) | 2.28 |
| COC(=O)C1=C(C)NC(C)=C([N+](=O)[O-])C1c1cc([N+](=O)[O-])ccc1OCCCCN1CCN(c2ccccc2OC)CC1 (stereo not shown) [Example 138] | Ca^2 + channels (Rattus norvegicus) | 2.34 |
| COc1ccccc1N1CCN(CCOC(=O)C2=C(C)NC(C)=C([N+](=O)[O-])C2c2ccccc2Cl)CC1 (stereo not shown) [Example 5] | Ca^2 + channels (Rattus norvegicus) | 1.86 |

## Task Report measured log10(IC50); entry is COC(=O)C1=C(C)NC(C)=C([N+](=O)[O-])C1c1cccc([N+](=O)[O-])c1OCCCN1CCN(c2ccccc2OC)CC1 (stereo not shown) [Example 139]
## Result 2.08
